tested.system: LAR (Homo sapiens, UniProt P10586)
Sequence (P10586 30-1907): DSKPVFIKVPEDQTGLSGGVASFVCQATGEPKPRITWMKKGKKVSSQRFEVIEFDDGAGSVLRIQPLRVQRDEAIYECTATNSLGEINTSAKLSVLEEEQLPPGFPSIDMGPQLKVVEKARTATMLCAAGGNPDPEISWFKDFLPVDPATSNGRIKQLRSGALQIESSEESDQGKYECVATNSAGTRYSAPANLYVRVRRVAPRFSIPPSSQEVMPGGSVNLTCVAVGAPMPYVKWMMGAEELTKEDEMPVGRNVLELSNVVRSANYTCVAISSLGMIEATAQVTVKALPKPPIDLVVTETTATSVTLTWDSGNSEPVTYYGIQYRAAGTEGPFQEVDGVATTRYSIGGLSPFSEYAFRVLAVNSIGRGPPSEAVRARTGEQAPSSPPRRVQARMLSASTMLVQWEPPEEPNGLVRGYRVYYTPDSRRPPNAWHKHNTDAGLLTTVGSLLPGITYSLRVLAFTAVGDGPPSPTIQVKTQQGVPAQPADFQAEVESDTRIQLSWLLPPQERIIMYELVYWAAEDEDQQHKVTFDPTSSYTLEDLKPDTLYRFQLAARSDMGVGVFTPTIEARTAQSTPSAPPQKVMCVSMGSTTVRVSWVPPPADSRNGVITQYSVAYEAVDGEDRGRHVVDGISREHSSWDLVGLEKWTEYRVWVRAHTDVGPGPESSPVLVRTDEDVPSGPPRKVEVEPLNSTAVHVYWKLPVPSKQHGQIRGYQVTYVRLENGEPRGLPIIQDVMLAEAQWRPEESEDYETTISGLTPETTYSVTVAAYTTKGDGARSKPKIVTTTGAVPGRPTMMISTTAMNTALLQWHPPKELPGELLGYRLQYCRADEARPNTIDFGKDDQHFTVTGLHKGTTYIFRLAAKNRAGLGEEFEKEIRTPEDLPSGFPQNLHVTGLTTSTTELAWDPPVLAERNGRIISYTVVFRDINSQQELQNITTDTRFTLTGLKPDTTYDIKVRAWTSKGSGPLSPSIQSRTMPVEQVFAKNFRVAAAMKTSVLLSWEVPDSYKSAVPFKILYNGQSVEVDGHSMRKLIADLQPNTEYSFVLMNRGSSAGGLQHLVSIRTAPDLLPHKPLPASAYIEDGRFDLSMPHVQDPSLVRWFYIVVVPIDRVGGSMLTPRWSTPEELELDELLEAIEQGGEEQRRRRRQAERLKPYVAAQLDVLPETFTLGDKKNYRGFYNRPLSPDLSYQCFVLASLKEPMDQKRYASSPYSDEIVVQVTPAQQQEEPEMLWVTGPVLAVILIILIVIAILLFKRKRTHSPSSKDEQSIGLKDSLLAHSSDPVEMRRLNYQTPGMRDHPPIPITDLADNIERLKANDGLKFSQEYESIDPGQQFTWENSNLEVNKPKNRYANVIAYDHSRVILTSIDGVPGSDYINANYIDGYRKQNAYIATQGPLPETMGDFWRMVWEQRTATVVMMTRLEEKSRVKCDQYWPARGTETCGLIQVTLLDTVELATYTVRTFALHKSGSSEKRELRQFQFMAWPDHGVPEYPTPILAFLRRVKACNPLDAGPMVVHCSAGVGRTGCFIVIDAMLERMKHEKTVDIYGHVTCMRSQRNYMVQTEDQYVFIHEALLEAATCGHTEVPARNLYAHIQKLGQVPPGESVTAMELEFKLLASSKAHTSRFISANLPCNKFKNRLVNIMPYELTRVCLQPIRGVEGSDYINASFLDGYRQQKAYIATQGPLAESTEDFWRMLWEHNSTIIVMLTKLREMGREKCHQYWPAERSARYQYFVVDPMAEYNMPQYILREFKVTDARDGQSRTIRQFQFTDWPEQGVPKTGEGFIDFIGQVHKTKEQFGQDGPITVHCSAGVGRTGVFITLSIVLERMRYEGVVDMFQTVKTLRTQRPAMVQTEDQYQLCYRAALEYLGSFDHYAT
pIC50: −log10 of the molar value.

compound: O=C(CS(=O)(=O)O)Nc1ccc2nc(C(F)(F)F)[nH]c2c1
pIC50: < 4.00
//
compound: Cc1c(Br)cc(NC(=O)CS(=O)(=O)O)cc1Br
pIC50: < 4.00
//
compound: O=C(Nc1ccc(N2CCOCC2)cc1)C(c1ccccc1)S(=O)(=O)O (stereo not shown) [Compound L319M68]
pIC50: < 3.70
//
compound: O=C(C(c1ccccc1)S(=O)(=O)O)N1CCCC2CCCCC21 (stereo not shown) [Compound L319N53]
pIC50: < 3.70
//
compound: O=C(CS(=O)(=O)O)Nc1cnc2ccccc2c1
pIC50: < 4.00
//
compound: O=C(C(c1ccccc1)S(=O)(=O)O)N1CCC(c2ccc(Cl)c(Cl)c2)CC1 (stereo not shown) [Compound L319N47]
pIC50: < 3.70
//
compound: O=C(Nc1cccc(OCc2ccccc2)c1)C(c1ccccc1)S(=O)(=O)O (stereo not shown) [Compound L319M52]
pIC50: < 3.70
//
compound: O=C(CS(=O)(=O)O)Nc1nc2ccc([N+](=O)[O-])cc2s1 [Compound L335N15-07]
pIC50: < 4.00
//
compound: O=C(C(c1ccccc1)S(=O)(=O)O)N1CCC(Cc2ccccc2)CC1 (stereo not shown) [Compound L319N46]
pIC50: < 3.70
//
compound: O=C(Nc1ccc2nc(C(F)(F)F)[nH]c2c1)C(c1ccccc1)S(=O)(=O)O (stereo not shown) [Compound L319M54]
pIC50: < 3.70
//
compound: O=C(Nc1nc2ccccc2s1)C(c1ccccc1)S(=O)(=O)O (stereo not shown) [Compound L319N15]
pIC50: < 3.70
//
compound: O=C(Nc1cnc2ccccc2c1)C(c1ccccc1)S(=O)(=O)O (stereo not shown) [Compound L319M88]
pIC50: < 3.70
//
compound: O=C(CS(=O)(=O)O)Nc1nc2ccccc2s1 [Compound L335N15]
pIC50: < 4.00

###

tested.system: UniProt:Q06124
Sequence (Q06124 224-528): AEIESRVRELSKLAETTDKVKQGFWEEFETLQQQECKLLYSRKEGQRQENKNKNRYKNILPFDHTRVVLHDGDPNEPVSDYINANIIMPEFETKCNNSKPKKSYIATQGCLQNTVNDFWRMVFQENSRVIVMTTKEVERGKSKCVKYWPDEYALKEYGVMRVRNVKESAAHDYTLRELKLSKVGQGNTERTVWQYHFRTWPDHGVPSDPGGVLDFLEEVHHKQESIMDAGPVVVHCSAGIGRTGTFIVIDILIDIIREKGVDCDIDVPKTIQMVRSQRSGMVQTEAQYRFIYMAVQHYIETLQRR
pKi: −log10 of the molar value.
recorded.metric: pKi

molecule: NC(=O)c1cc[n+](CC2=C(C(=O)O)N3C(=O)[C@@H](NC(=O)[C@@H](c4ccccc4)S(=O)(=O)[O-])[C@H]3SC2)cc1 [Cefsulodin, reference compound]
value.reported: 5.18

###

Overview of recorded pIC50 for various molecules
tested.system: PTPε (Homo sapiens)
Sequence (P23469 20-700): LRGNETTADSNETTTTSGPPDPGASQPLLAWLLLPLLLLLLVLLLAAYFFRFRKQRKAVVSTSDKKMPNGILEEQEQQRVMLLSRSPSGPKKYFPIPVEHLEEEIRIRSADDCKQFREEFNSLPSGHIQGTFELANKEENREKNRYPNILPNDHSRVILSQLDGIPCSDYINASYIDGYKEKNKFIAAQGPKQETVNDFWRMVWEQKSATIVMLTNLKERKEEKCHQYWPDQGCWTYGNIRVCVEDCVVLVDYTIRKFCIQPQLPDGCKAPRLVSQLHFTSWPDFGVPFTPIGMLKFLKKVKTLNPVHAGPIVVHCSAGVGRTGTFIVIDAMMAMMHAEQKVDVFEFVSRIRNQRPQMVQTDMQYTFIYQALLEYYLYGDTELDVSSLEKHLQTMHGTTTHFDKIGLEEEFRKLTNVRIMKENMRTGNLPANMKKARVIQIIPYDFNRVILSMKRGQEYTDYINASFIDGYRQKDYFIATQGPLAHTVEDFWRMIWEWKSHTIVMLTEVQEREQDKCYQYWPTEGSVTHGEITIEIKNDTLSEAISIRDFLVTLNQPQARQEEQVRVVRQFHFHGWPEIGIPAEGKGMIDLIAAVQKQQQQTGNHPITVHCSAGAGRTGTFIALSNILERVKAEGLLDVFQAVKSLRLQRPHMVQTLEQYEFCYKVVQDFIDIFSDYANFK
pIC50: −log10 of the molar value.

molecule: O=C(Nc1cnc2ccccc2c1)C(c1ccccc1)S(=O)(=O)O (stereo not shown) [Compound L319M88]
pIC50: < 3.70

molecule: Cc1c(Br)cc(NC(=O)CS(=O)(=O)O)cc1Br
pIC50: < 4.00

molecule: O=C(CS(=O)(=O)O)Nc1ccc2nc(C(F)(F)F)[nH]c2c1
pIC50: < 4.00

molecule: O=C(Nc1cccc(OCc2ccccc2)c1)C(c1ccccc1)S(=O)(=O)O (stereo not shown) [Compound L319M52]
pIC50: < 3.70
